# TARGET_OR_TEST_SYSTEM: Histamine H3 receptor (Homo sapiens, UniProt Q9Y5N1)
# Sequence (Q9Y5N1 whole entry): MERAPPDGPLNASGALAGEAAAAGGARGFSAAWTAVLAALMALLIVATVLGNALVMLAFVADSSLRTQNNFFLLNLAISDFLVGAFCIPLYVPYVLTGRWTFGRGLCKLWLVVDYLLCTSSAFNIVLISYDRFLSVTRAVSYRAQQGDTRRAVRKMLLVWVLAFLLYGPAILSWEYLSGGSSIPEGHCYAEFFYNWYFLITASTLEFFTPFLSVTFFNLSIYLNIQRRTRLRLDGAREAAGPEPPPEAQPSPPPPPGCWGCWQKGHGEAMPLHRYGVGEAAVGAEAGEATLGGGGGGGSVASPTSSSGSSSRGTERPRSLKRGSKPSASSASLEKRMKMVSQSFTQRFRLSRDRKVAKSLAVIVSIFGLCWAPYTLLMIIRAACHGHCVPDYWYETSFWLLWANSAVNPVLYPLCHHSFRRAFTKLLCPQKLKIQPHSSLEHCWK
# ASSAY_NOTES: Displacement of [125I]iodoproxyfan from histamine H3 receptor (unknown origin) expressed in CHO cells
# Assay type: cell-based
MEASURED_METRIC: Ki (nM)

| COMPOUND_STRING | Ki [nM] |
| --- | --- |
| O=C(/C=C/c1ccc(OCCCN2CCCCC2)cc1)c1ccc(OCCCN2CCCCC2)cc1 | 0.53 |

1. FC1(F)CCN(CCCOc2ccc(-c3ccc(OCCCN4CCCCC4)cc3)cc2)CC1
2. c1cc(CN2CCCCC2)cc(-c2ccc(OCCCN3CCCCC3)cc2)c1
3. c1cc(-c2ccc(OCCCN3CCCCC3)cc2)ccc1CN1CCCCC1
Sort by Ki, descending. Write out the labels following the order that was asked for.
1, 3, 2
(1: 9.31 nM, 3: 1.64 nM, 2: 0.549 nM)
